Listing of entries alongside the reported log10 IC50.
# MEASUREMENT_TARGET: Acetylcholinesterase (Electrophorus electricus, UniProt O42275)
# Sequence (O42275 whole entry): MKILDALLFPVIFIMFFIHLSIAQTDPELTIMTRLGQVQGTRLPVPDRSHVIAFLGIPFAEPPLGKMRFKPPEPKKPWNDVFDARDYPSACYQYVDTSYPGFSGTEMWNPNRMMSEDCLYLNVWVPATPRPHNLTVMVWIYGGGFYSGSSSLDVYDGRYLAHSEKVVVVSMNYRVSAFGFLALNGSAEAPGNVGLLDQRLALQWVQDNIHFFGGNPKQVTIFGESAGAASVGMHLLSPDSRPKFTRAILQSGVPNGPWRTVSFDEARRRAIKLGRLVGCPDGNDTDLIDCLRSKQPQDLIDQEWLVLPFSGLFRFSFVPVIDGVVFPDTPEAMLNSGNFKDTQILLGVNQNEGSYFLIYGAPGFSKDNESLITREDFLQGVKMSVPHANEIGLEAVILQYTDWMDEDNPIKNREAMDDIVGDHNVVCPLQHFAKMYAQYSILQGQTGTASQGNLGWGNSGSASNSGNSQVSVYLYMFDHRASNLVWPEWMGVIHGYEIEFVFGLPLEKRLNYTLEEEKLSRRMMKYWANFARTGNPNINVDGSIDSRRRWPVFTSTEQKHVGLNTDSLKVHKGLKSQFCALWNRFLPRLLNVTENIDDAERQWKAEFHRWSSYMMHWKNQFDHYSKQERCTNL
# TEST_METHOD_NOTES: Inhibition of electric eel AChE preincubated for 15 mins followed by addition of acetylthiocholine iodide substrate by Ellman's method-based spectrophotometric analysis
Annotation: log10 of IC50, nM basis.

O=C1c2ccccc2C(=O)N1CCCCN1CCN(Cc2ccccc2)CC1
1.26
O=C1c2ccccc2C(=O)N1C/C=C/CN1CCN(Cc2ccccc2)CC1
1.13
O=C1c2ccccc2C(=O)N1CCCCCN1CCN(Cc2ccc(Cl)cc2)CC1
2.86
O=C1c2ccccc2C(=O)N1CCCCN1CCN(Cc2ccc(Cl)cc2)CC1
3.15
COc1ccc(CN2CCN(CCCCCCCN3C(=O)c4ccccc4C3=O)CC2)cc1
2.65
O=C1c2ccccc2C(=O)N1CCCCCCCCCCN1CCN(Cc2ccccc2)CC1
2.54
O=C1c2ccccc2C(=O)N1CCCCCCN1CCN(Cc2ccccc2)CC1
2.00
COc1ccc(CN2CCN(CCN3C(=O)c4ccccc4C3=O)CC2)cc1
2.67

Turning now to a further compound:
Qu. Which log10 IC50 reading was recorded for the compound COc1ccc(CN2CCN(C/C=C/CN3C(=O)c4ccccc4C3=O)CC2)cc1 ?
Ans. 2.69

----------
A set of compounds tested on Acetylcholinesterase (Electrophorus electricus, UniProt O42275), with measured pIC50:
Bear in mind: pIC50 is minus log10 of a mol/L concentration; give just that figure.

O=C1c2ccccc2C(=O)N1CCCCCCCCN1CCN(Cc2ccc(Cl)cc2)CC1
6.36

Qu. Which pIC50 reading was recorded for the compound O=C1c2ccccc2C(=O)N1CCCCCCCN1CCN(Cc2ccccc2)CC1 ?
Ans. 7.27

Qu. Which pIC50 reading was recorded for the compound COc1ccc(CN2CCN(CCCCCCN3C(=O)c4ccccc4C3=O)CC2)cc1 ?
Ans. 6.16

----------
A set of molecules tested on Acetylcholinesterase (Electrophorus electricus, UniProt O42275), with measured pIC50:
Bear in mind: pIC50 is minus log10 of a mol/L concentration; give just that figure.

Use the examples below as a reference point.
O=C1c2ccccc2C(=O)N1CCCN1CCN(Cc2ccc(Cl)cc2)CC1
5.84
O=C1c2ccccc2C(=O)N1C/C=C/CN1CCN(Cc2ccc(Cl)cc2)CC1
6.42
COc1ccc(CN2CCN(CCCCCCCCCCN3C(=O)c4ccccc4C3=O)CC2)cc1
6.15

Qu. Please provide the recorded pIC50 for O=C1c2ccccc2C(=O)N1CCCCCCCCCCN1CCN(Cc2ccc(Cl)cc2)CC1 , tested on Acetylcholinesterase (Electrophorus electricus, UniProt O42275).
Ans. 5.90

Qu. Please provide the recorded pIC50 for O=C1c2ccccc2C(=O)N1CCCN1CCN(Cc2ccccc2)CC1 , tested on Acetylcholinesterase (Electrophorus electricus, UniProt O42275).
Ans. 6.91

Qu. Please provide the recorded pIC50 for O=C1c2ccccc2C(=O)N1CCCCCCCCCN1CCN(Cc2ccc(Cl)cc2)CC1 , tested on Acetylcholinesterase (Electrophorus electricus, UniProt O42275).
Ans. 6.19

Qu. Please provide the recorded pIC50 for COc1cc2c(cc1OCCCN1CCN(c3ccccc3OC)CC1)C(C)C(C)C(=O)O2 (configuration not stated) , tested on Acetylcholinesterase (Electrophorus electricus, UniProt O42275).
Ans. 7.44

Qu. Please provide the recorded pIC50 for COc1ccc(CN2CCN(CCCN3C(=O)c4ccccc4C3=O)CC2)cc1 , tested on Acetylcholinesterase (Electrophorus electricus, UniProt O42275).
Ans. 6.29

----------
# MEASUREMENT_TARGET: Acetylcholinesterase (Electrophorus electricus, UniProt O42275)
Listing of entries alongside the reported pIC50.
Bear in mind: pIC50 is minus log10 of a mol/L concentration; give just that figure.

Use the examples below as a reference point.
O=C1c2ccccc2C(=O)N1CCCCCCCN1CCN(Cc2ccc(Cl)cc2)CC1
6.18
O=C1c2ccccc2C(=O)N1CCCCCCN1CCN(Cc2ccc(Cl)cc2)CC1
6.41

Turning now to a further compound:
Qu. Please provide the recorded pIC50 for COc1ccc(CN2CCN(CCCCCN3C(=O)c4ccccc4C3=O)CC2)cc1 , tested on Acetylcholinesterase (Electrophorus electricus, UniProt O42275).
Ans. 6.26

----------
A set of compounds tested on Acetylcholinesterase (Electrophorus electricus, UniProt O42275), with measured pIC50:
Bear in mind: pIC50 is minus log10 of a mol/L concentration; give just that figure.

Qu. Which pIC50 reading was recorded for the compound COc1ccc(CN2CCN(CCCCCCCCCN3C(=O)c4ccccc4C3=O)CC2)cc1 ?
Ans. 6.18

----------
# MEASUREMENT_TARGET: Acetylcholinesterase (Electrophorus electricus)
Listing of entries alongside the reported pIC50.
Bear in mind: pIC50 is minus log10 of a mol/L concentration; give just that figure.

O=C1c2ccccc2C(=O)N1CCCCCCCCN1CCN(Cc2ccccc2)CC1
6.69

Qu. Please provide the recorded pIC50 for O=C1c2ccccc2C(=O)N1CCN1CCN(Cc2ccccc2)CC1 , tested on Acetylcholinesterase (Electrophorus electricus).
Ans. 7.04

Qu. Please provide the recorded pIC50 for O=C1c2ccccc2C(=O)N1CCN1CCN(Cc2ccc(Cl)cc2)CC1 , tested on Acetylcholinesterase (Electrophorus electricus).
Ans. 5.96
